- TESTED_SYSTEM: Opioid receptor (Rattus norvegicus, UniProt P33533+P34975+P33535)
- ASSAY_PROCEDURE: Displacement of [3H]dihydromorphine (DHM) from rat brain Opioid receptors
Assign log10 IC50 to each entry below.
Hi team, quick reminder: these entries are log10 of IC50 (nM).

Consider the worked cases shown below.
1) CN1c2ccccc2C(c2ccccc2F)=NCC1CNC(=O)Cc1c[nH]c2ccccc12 (stereo unspecified) | 1.34
2) CN1c2ccccc2C(c2ccccc2F)=NCC1CNC(=O)c1cccnc1 (stereo unspecified) | 2.65
3) CN1c2ccccc2C(c2ccccc2F)NCC1CNC(=O)c1ccsc1 (stereo unspecified) | 1.48
4) CC(=O)NCSCC(=O)NCC1CN=C(c2ccccc2F)c2ccccc2N1C (stereo unspecified) | 2.08
5) CN1c2ccccc2C(c2ccccc2F)=NCC1CNC(=O)Cc1cccc2sccc12 (stereo unspecified) | 0.48

Provide reported log10 IC50 for each item, in the same order as listed.
1. COC(=O)CC(NCC1CN=C(c2ccccc2F)c2ccccc2N1C)c1ccccc1 (stereo unspecified)
2. CN1c2ccccc2C(c2ccccc2F)=NCC1CNC(=O)C(N)Cc1c[nH]c2ccccc12 (stereo unspecified)
3. CN1c2ccccc2C(c2ccccc2F)=NCC1CNC(=O)c1ccc(Cl)cc1 (stereo unspecified)
4. CN1c2ccccc2C(c2ccccc2F)=NCC1CNC(=O)C(O)c1ccccc1 (stereo unspecified)
5. O=C(NCC1N=C(c2ccccc2F)c2ccccc2NC1=O)OCc1ccccc1 (stereo unspecified)
6. CN1c2ccccc2C(c2ccccc2F)=NCC1CNC(=O)c1cc2ccccc2[nH]1 (stereo unspecified)

1: 1.26; 2: 1.60; 3: -0.30; 4: 0.85; 5: 4.08; 6: -0.52
